biological target: Cyclin-dependent kinase 4 (Homo sapiens); settings: at 1 µM;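 also: enzyme tested as the CDK4–cyclin D complex, with the value reported as mean percent inhibition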
For each of the molecules below, state its inhibition.
Answers are plain numbers, in %.

Record Smiles: CCC(=O)Nc1ccc(C)c(-c2ccc(C(=O)NCC3CC3)cc2)c1
inhibition (%): 5.05
--
Record Smiles: COc1cccc(-n2cnc3c(N/N=C/c4ccncc4)ncnc32)c1
inhibition (%): -4.27
--
Record Smiles: O=C1Nc2ccccc2/C1=C/Nc1ccc(-n2cncn2)cc1
inhibition (%): 25.2
--
Record Smiles: Cc1nnc(-c2ccc(C)c(-c3ccc(C(=O)NCc4ccc(Cl)cc4)cc3)c2)o1
inhibition (%): 0.24
--
Record Smiles: N#Cc1ccc(Oc2nccc(-c3c(-c4ccc(F)cc4)ncn3C3CCNCC3)n2)cc1
inhibition (%): 3.8
--
Record Smiles: NS(=O)(=O)c1ccc(N/N=C2\C(=O)Nc3ccc(C(=O)NCCCn4ccnc4)cc32)cc1
inhibition (%): 57.1

Shift focus to the following entry.
Form: item `Fc1ccc(-c2ncn(CCCN3CCOCC3)c2-c2ccncc2)cc1` ; test system Cyclin-dependent kinase 4 (Homo sapiens); inhibition: 5.08

====

molecular target: cGMP-dependent protein kinase 1 (Homo sapiens); conditions: at 0.1 µM
Description: GSK_PKIS: PRKG1 mean inhibition at 0.1 uM [Nanosyn]
Value Type: inhibition (%)
Answers are plain numbers, in %.

Would you please look over these solved cases?
Compound: O=C(Nc1n[nH]c2cc(-c3cc(F)ccc3F)ccc12)C1CC1
inhibition [%]: 3.55

Compound: CS(=O)(=O)CCNCc1ccc(-c2ccc3ncnc(Nc4ccc(OCc5ccccc5)c(Br)c4)c3c2)o1
inhibition [%]: 3.47

Compound: Clc1ccc(CNc2nccc(-c3cnn4ncccc34)n2)cc1
inhibition [%]: 2.07

Compound: Fc1ccc(-c2ncn(C3CCNCC3)c2-c2ccnc(Oc3ccc(Oc4ccccc4)cc3)n2)cc1
inhibition [%]: 4.81

Compound: C#Cc1cccc(Nc2ncnc3ccc(OCCCCNCCS(C)(=O)=O)cc23)c1
inhibition [%]: 1.04

Compound: COc1ccc2ncn(-c3cc(O[C@H](C)c4ccccc4Cl)c(C(N)=O)s3)c2c1
inhibition [%]: 3.47

Compound: CN1CCN(CCCNc2nc3ccc(Oc4ccc(NC(=O)Nc5cc(C(F)(F)F)ccc5F)cc4)cc3[nH]2)CC1
inhibition [%]: 3.15

Compound: Cc1ccc(NC(=O)c2ccoc2)cc1-c1ccc(C(=O)NCC2CC2)cc1
inhibition [%]: 0.89

Compound: COc1ccc(-c2ccc3c(NC(=O)C4CC4)n[nH]c3n2)cc1
inhibition [%]: 1.26

Compound: CCS(=O)(=O)c1ccc(OC)c(Nc2ncc(-c3cccc(-c4ccccc4F)c3)o2)c1
inhibition [%]: 0.11

Report inhibition for each item below.
1. Nc1nccc(-c2c(-c3ccc(F)cc3)ncn2C2CCC(O)CC2)n1 (stereo unspecified)
2. COC(=O)Nc1nc2ccc(Sc3ccc(NC(=O)Nc4cc(C(F)(F)F)ccc4F)cc3)cc2[nH]1
3. COc1cc(Nc2ncc3c(C)nc(-c4cccc(Oc5ccccc5)c4)n3n2)cc(OC)c1OC
4. C[C@@H](Oc1cc(-n2cnc3ccc(OCC4CCN(C)CC4)cc32)sc1C(N)=O)c1ccccc1Cl
5. O=C(Nc1n[nH]c2cc(-c3ccccc3)ccc12)C1CC1
6. C/C(Nc1ccc(S(N)(=O)=O)cc1)=C1/C(=O)Nc2ccccc21

1. -1.29
2. 0.91
3. 1.98
4. 3.88
5. 3.2
6. 0.96

Give measured inhibition for every item shown.
1. COc1cc2ncn(-c3cc(OCc4ccccc4C(F)(F)F)c(C(C)=O)s3)c2cc1OC
2. CCC(=O)Nc1ccc(C)c(-c2ccc(C(=O)NCC3CC3)cc2)c1
3. COc1cc(Nc2ncc3c(C)nc(-c4cccc(C(F)(F)F)c4)n3n2)cc(OC)c1OC

[1.35, 2.33, 0.96]

Please go through the list and note inhibition for each compound.
1. COc1cccc(/C=N/Nc2ncnc3c2cnn3-c2cccc(OC)c2)c1
2. CCc1ccc(Oc2nccc(-c3c(-c4ccc(F)cc4)ncn3C3CCNCC3)n2)cc1

3.82
4.32

// for each compound below, give its inhibition
1. Fc1ccc(-c2ncn(CCCN3CCOCC3)c2-c2ccncc2)cc1
2. CCc1nccc2c1nc(-c1nonc1N)n2CC
3. Cc1ccc(C(=O)NC2CCC2)cc1-c1ccc(C(=O)NCC2CC2)cc1
4. COc1ccc2cc(-c3c(-c4ccncc4)nc(-c4ccc([S+](C)[O-])cc4C)n3C)ccc2c1 (stereo unspecified)
5. CN(C)c1ccc2c(c1)/C(=C/Nc1ccc(S(N)(=O)=O)cc1)C(=O)N2
6. NS(=O)(=O)c1ccc(N/N=C2\C(=O)Nc3ccc(-c4cnco4)cc32)cc1
7. NS(=O)(=O)c1ccc(N/N=C2\C(=O)Nc3ccc(C(=O)NCCCn4ccnc4)cc32)cc1
8. c1ccc(-c2n[nH]cc2-c2ccnc(-c3ccc(OCCN4CCOCC4)cc3)c2)nc1

1: 0.4; 2: 0.88; 3: 3.87; 4: 0.69; 5: 2.39; 6: 2.42; 7: 4.15; 8: 3.53

Give inhibition for each of the items listed below.
1. c1ccc(Oc2ccc(Nc3ncc(-c4ccccc4)o3)cc2)cc1
2. Fc1ccc(-c2c(-c3ccncc3)nc3n2CCS3)cc1

1. 2.21
2. 4.15

====

biological target: Non-receptor tyrosine-protein kinase TNK1 (Homo sapiens) (UniProt Q13470); conditions: at 1 µM
Sequence (Q13470 whole entry): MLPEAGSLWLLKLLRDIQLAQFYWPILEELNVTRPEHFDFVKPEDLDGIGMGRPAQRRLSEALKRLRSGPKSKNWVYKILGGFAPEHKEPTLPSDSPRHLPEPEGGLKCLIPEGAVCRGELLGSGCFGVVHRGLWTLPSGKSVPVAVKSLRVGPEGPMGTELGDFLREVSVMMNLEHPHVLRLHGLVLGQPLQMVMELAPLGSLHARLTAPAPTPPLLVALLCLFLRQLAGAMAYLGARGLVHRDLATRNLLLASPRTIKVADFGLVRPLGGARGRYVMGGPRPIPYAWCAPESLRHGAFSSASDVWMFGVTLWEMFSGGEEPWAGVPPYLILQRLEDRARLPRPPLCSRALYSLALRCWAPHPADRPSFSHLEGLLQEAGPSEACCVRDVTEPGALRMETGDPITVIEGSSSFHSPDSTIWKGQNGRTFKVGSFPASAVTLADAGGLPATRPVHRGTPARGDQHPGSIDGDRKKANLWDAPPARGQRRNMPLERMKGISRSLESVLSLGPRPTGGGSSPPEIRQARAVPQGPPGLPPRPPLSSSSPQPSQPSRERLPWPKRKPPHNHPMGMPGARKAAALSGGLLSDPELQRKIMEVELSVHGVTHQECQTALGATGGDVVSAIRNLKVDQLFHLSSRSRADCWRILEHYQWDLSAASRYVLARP
Value Type: inhibition

Record Smiles: O=C(Nc1n[nH]c2nc(-c3ccco3)ccc12)C1CC1
System: Non-receptor tyrosine-protein kinase TNK1 (Homo sapiens) (UniProt Q13470)
inhibition: 1.24%

Record Smiles: Fc1ccc(-c2nc3n(c2-c2ccncc2)CCS3)cc1
System: Non-receptor tyrosine-protein kinase TNK1 (Homo sapiens) (UniProt Q13470)
inhibition: -1.81%

Record Smiles: Fc1ccc(-c2c(-c3ccncc3)nc3n2CCS3)cc1
System: Non-receptor tyrosine-protein kinase TNK1 (Homo sapiens) (UniProt Q13470)
inhibition: 2.59%

Record Smiles: O=C(Nc1n[nH]c2cc(-c3cc(F)ccc3F)ccc12)C1CC1
System: Non-receptor tyrosine-protein kinase TNK1 (Homo sapiens) (UniProt Q13470)
inhibition: 7.03%

Record Smiles: COc1ccc2ncn(-c3cc(O[C@H](C)c4ccccc4Cl)c(C(N)=O)s3)c2c1
System: Non-receptor tyrosine-protein kinase TNK1 (Homo sapiens) (UniProt Q13470)
inhibition: 24.1%

Record Smiles: O=C1Nc2ccccc2/C1=C/Nc1ccc(-n2cncn2)cc1
System: Non-receptor tyrosine-protein kinase TNK1 (Homo sapiens) (UniProt Q13470)
inhibition: 14%

Record Smiles: O=C(Nc1n[nH]c2nc(-c3ccc(O)cc3)c(Br)cc12)C1CC1
System: Non-receptor tyrosine-protein kinase TNK1 (Homo sapiens) (UniProt Q13470)
inhibition: 20.4%

Record Smiles: CCN(CC)Cc1ccc(Nc2nccc(-c3cnn4ncccc34)n2)cc1
System: Non-receptor tyrosine-protein kinase TNK1 (Homo sapiens) (UniProt Q13470);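 also: values are averaged percent inhibition of TNK1, compounds from the GSK published kinase inhibitor set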
inhibition: 32%

For each of the items listed, what is its inhibition?
1. O=C(NCC1CC1)c1ccc(-c2cccc(C(=O)NC3CC3)c2)cc1
2. O=C(Nc1ccc(Oc2ccc3[nH]c(NC(=O)c4ccccc4)nc3c2)cc1)Nc1cc(C(F)(F)F)ccc1F
3. CS(=O)(=O)CCNCc1cc(-c2cc3c(Nc4ccc(OCc5cccc(F)c5)c(Cl)c4)ncnc3s2)cs1
4. NS(=O)(=O)c1ccc(N/N=C2\C(=O)Nc3ccc(C(=O)NCCCn4ccnc4)cc32)cc1
5. C[C@@H](Oc1cc(-n2cnc3ccc(OC4CCN(C)CC4)cc32)sc1C(N)=O)c1ccccc1Cl
6. COc1cc(N2CCN(C(C)C)CC2)ccc1Nc1nc(Nc2ccc(F)cc2C(=O)NC[C@@H](O)CO)c2cc[nH]c2n1
7. NCc1ccc(-n2c(-c3nonc3N)nc3cnccc32)cc1

1. -2.48%
2. 40%
3. 6.39%
4. 16.5%
5. 18.1%
6. 60.5%
7. 3.5%

====

Assignment: determine reported inhibition for the given compounds.
biological target: Dual specificity tyrosine-phosphorylation-regulated kinase 1B (Homo sapiens) (UniProt Q9Y463); conditions: at 1 µM;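 also: values are mean percent inhibition of DYRK1B, from the GSK_PKIS set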
Sequence (Q9Y463 whole entry, looked up): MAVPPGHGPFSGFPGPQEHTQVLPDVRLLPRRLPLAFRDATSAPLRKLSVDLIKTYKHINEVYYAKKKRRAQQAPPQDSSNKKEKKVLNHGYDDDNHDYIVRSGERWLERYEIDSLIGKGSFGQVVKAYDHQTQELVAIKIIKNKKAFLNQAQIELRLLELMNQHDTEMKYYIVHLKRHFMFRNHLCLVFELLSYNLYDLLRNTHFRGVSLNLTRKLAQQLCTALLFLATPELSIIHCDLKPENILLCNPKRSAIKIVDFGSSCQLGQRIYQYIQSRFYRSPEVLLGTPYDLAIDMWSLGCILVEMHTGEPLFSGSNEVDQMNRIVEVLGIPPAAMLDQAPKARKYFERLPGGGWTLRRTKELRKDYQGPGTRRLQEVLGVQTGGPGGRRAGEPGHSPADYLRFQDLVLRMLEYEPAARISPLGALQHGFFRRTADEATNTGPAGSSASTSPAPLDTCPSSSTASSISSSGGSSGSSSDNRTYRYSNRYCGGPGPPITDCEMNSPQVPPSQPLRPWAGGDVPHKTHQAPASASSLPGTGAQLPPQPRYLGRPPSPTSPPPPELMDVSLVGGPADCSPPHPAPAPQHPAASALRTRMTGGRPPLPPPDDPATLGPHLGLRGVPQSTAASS
One number for each entry, in %.

Worked cases, answers included:
Record Smiles: NC(=O)c1ccc(Oc2nccc(-c3c(-c4ccc(F)cc4)ncn3C3CCNCC3)n2)cc1
Value Type: inhibition
Scale Unit: %
Meas Value: -0.41

Record Smiles: O=C1Nc2ccc(I)cc2C1=Cc1cc(Br)c(O)c(Br)c1
Value Type: inhibition
Scale Unit: %
Meas Value: 3.56

Record Smiles: NS(=O)(=O)c1ccc(N/N=C2\C(=O)Nc3ccc(C(=O)NCCCn4ccnc4)cc32)cc1
Value Type: inhibition
Scale Unit: %
Meas Value: 15.6

Record Smiles: COC(=O)Nc1nc2ccc(Sc3ccc(NC(=O)Nc4cc(C(F)(F)F)ccc4F)cc3)cc2[nH]1
Value Type: inhibition
Scale Unit: %
Meas Value: 3.2

Record Smiles: O=C1NC(=O)C(c2cccc(Cl)c2)=C1Nc1ccc(Cl)c(C(=O)O)c1
Value Type: inhibition
Scale Unit: %
Meas Value: 1.57

Record Smiles: O=C(Nc1n[nH]c2cc(-c3cc(F)ccc3F)ccc12)C1CC1
Value Type: inhibition
Scale Unit: %
Meas Value: -0.93

Record Smiles: Cc1ccc(C(=O)NC(C)C)cc1-c1ccc(C(=O)NCC2CC2)cc1
Value Type: inhibition
Scale Unit: %
Meas Value: 3.96

Record Smiles: Fc1ccc(-c2nc3n(c2-c2ccncc2)CCS3)cc1
Value Type: inhibition
Scale Unit: %
Meas Value: -3.89

Provide the reported inhibition of each entry below, same order.
1. COc1cc2ncn(-c3cc(OCc4cccs4)c(C(N)=O)s3)c2cc1OC
2. COc1cc(C)c(N(C)C(=O)CN(C)C)cc1Nc1nc(Nc2cccc(F)c2C(N)=O)c2cc[nH]c2n1
3. COc1cccc(/C=N/Nc2ncnc3c2cnn3-c2cccc(OC)c2)c1
4. C[C@@H](Oc1cc(-n2cnc3ccc(OC4CCN(C)CC4)cc32)sc1C(N)=O)c1ccccc1Cl

1. -1.79
2. 13.1
3. 2.23
4. -3.42

# batch: return inhibition for each of the 3 compounds below
1. FC(F)(F)c1cccc(Nc2nccc(-c3cnn4nc(-c5ccccc5)ccc34)n2)c1
2. CNC(=O)c1cncc(/C=C/c2c(C)cccc2C)c1
3. NCc1ccc(-n2c(-c3nonc3N)nc3cnccc32)cc1

1. 8.12
2. 1.89
3. 36.4

// each listed compound needs a value for inhibition
1. C[C@@H](Oc1cc(-n2cnc3ccc(OCC4CCN(C)CC4)cc32)sc1C(N)=O)c1ccccc1Cl
2. COc1ccc(C2=C(N3CCc4ccccc43)C(=O)NC2=O)cc1

[2.55, 8.53]

Go through the list and state inhibition for each entry.
1. CN(C)CCCNc1nccc(-c2c(-c3ccc(F)cc3)nn3cc(C(F)(F)F)ccc23)n1
2. O=C(Nc1n[nH]c2nc(-c3ccc(O)cc3)c(Br)cc12)C1CC1
3. Fc1ccc(-c2ncn(CCCN3CCOCC3)c2-c2ccncc2)cc1
4. COc1cc(Nc2ncc3c(C)nc(-c4cccc(C(F)(F)F)c4)n3n2)cc(OC)c1OC
5. Fc1ccc(-c2c(-c3ccncc3)nc3n2CCS3)cc1

-0.43
71.7
-0.19
11.2
-2.54

Go through the list and state inhibition for each entry.
1. CS(=O)(=O)CCNCc1ccc(-c2ccc3ncnc(Nc4ccc(OCc5ccccc5)c(Br)c4)c3c2)o1
2. NC(=O)Cc1ccccc1Oc1nccc(-c2c(-c3ccc(F)cc3)ncn2C2CCNCC2)n1

1: -4.49; 2: 3.43
